Test system: NB4 (acute promyelocytic leukemia, AML)
method: Leukemia cell growth inhibition, MTT, 72 h (Example 5)
Assay type: cell-based, human
applied-conditions: Homo sapiens; 72 h, MTT
parameter: IC90 (µg/mL)

COc1ccc2cc1Oc1ccc(cc1)C[C@H]1c3cc(c(OC)cc3CCN1C)Oc1c(OC)c(OC)c(CN3CCC(N(C)C)CC3)c3c1[C@H](C2)N(C)CC3 | 1
COc1ccc2cc1Oc1ccc(cc1)C[C@H]1c3cc(c(OC)cc3CCN1C)Oc1c(OC)c(OC)c(CN3CCCC(O)C3)c3c1[C@H](C2)N(C)CC3 (stereo partly drawn) | 1.9
COc1ccc2cc1Oc1ccc(cc1)C[C@H]1c3cc(c(OC)cc3CCN1C)Oc1c(OC)c(OC)c(CN3CCN(c4ccccc4)CC3)c3c1[C@H](C2)N(C)CC3 | 3.06

(a) COc1ccc2cc1Oc1ccc(cc1)C[C@H]1c3cc(c(OC)cc3CCN1C)Oc1c(OC)c(OC)c(CN3CCC(O)CC3)c3c1[C@H](C2)N(C)CC3
(b) CNCc1c2c3c(c(OC)c1OC)Oc1cc4c(cc1OC)CCN(C)[C@H]4Cc1ccc(cc1)Oc1cc(ccc1OC)C[C@@H]3N(C)CC2
Input line: Among a and b , whose measured IC90 is the smaller figure? Respond with the label that goes with your answer.
Output line: b
(b: 1.8 µg/mL, a: 6.61 µg/mL)

Data origin: patent US9133207B2
